- Target Or Test System: Human CB1R (Cannabanoid receptor 1) (Homo sapiens (Human), UniProt P21554)
- Sequence (P21554 whole entry): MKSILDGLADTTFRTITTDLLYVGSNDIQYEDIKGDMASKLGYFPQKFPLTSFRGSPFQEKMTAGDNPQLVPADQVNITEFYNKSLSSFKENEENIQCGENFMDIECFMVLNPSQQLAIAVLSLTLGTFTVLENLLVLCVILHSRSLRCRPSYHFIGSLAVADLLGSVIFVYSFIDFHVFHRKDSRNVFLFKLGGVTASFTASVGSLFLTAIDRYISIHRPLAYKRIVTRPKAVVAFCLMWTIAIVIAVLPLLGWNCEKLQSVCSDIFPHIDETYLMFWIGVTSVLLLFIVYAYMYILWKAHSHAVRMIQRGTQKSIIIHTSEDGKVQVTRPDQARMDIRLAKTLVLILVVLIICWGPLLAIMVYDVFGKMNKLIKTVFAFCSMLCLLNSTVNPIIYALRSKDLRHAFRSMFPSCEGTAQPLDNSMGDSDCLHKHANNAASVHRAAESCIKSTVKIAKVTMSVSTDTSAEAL
- Assay Comment: CB-1 in vitro cAMP assay (HTRF)
- Condition Set: mean where tested more than once
- Excerpt: CB1 and CB2 receptors are Gi-coupled GPCR. Activation of CB1 and CB2 receptors results in a decrease in cAMP production. An inverse agonist of the CB1 or CB2 receptor results in the opposite effect, an increase of cAMP production. The principle of this assay is based on HTRF® technology (Homogeneous Time-Resolved Fluorescence). […] The tracer binding is quantified by a Mab anti-cAMP labeled with Eu3+TBP-NHS Cryptate (supplied as part of the assay kit). […]
pEC50: −log10 of the molar value.
Quick rule for you: pEC50 at 8 or higher means Yes, lower means No.

O=S(=O)(NC1CCN(c2ncnc3ccc(C(c4ccc(Cl)cc4)c4ccc(Cl)cc4)cc23)CC1)C(F)(F)F; No
O=C(O)c1ccc(C(=O)N2CCC(Nc3ncnc4ccc(C(c5ccc(Cl)cc5)c5ccc(Cl)cc5)cc34)CC2)cc1; No
O=C(CC(=O)N1CCC(Nc2ncnc3ccc(C(c4ccc(Cl)cc4)c4ccc(Cl)cc4)cc23)CC1)NCCO; No
O=C(c1ccccc1)N1CCC(Nc2ncnc3ccc(C(c4ccc(Cl)cc4)c4ccc(Cl)cc4)cc23)CC1; Yes
COC(=O)CS(=O)(=O)N1CCC(Nc2ncnc3ccc(C(c4ccc(Cl)cc4)c4ccc(Cl)cc4)cc23)CC1; No
FC(F)(F)c1ccc(C2(Nc3ncnc4ccc(C(c5ccc(Cl)cc5)c5ccc(Cl)cc5)cc34)CC2)cc1; No

Decide: is the reported value of pEC50 for "O=S(=O)(c1ccccc1F)N1CCC(Nc2ncnc3ccc(C(c4ccc(Cl)cc4)c4ccc(Cl)cc4)cc23)CC1" equal to or greater than 8?
Yes

Decide: is the reported value of pEC50 for "O=C(O)CCOCCOc1nc(NCc2cccc(C(F)(F)F)c2)c2cc(C(c3ccc(Cl)cc3)c3ccc(Cl)cc3)ccc2n1" equal to or greater than 8?
No
